These measurements were taken from paper PMC8229181.

biological target: ovine COX-1 (Ovis aries)
Sequence (P05979 25-600): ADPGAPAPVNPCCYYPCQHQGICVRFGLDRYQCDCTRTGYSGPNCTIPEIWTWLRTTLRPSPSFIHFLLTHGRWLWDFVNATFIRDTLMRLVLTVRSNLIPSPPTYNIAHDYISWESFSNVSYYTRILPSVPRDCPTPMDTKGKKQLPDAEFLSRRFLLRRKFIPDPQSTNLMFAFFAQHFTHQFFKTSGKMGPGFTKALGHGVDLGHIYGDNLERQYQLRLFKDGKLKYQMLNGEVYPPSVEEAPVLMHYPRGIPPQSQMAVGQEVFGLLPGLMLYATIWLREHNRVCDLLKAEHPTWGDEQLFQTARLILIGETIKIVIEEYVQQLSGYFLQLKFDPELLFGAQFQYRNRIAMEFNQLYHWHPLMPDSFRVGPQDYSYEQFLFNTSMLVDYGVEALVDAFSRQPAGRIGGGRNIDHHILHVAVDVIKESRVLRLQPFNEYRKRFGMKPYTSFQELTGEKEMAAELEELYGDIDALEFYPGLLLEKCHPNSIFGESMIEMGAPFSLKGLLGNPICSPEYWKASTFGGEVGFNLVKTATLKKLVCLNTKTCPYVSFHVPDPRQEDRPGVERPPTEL
assay-metric: IC50 (µM)
# number only, unit µM dropped from output

Documented IC50 of CC(C)C1CCC2(C(=O)O)CCC3(C)C(=CCC4C5(C)CCC(O)C(C)(C)C5CCC43C)C12 (stereo not shown) [SA-4] : 104

* * *

molecular target: human recombinant COX-2 (Homo sapiens); experiment: In vitro COX-2 inhibitory assay (enzyme immunoassay kit); details: human recombinant COX-2, enzyme immunoassay kit
Sequence (P35354 18-604): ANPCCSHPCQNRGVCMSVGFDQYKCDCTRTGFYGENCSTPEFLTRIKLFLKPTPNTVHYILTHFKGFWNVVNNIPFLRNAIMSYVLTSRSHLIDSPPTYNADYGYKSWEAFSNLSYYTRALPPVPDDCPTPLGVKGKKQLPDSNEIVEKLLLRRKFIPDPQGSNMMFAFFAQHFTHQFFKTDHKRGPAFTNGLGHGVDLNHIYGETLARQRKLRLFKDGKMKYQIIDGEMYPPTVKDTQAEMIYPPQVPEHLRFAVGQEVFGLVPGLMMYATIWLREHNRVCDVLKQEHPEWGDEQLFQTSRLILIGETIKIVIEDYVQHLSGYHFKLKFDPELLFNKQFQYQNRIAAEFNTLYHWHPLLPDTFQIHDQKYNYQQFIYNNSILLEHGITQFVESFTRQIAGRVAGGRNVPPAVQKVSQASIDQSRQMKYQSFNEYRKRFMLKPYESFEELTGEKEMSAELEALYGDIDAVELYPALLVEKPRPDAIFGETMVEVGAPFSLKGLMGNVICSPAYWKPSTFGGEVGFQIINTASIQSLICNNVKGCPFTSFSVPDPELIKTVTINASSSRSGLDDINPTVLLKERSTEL
assay-metric: pIC50
Quick note: pIC50 values are minus log10 of concentrations in mol/L.

Documented pIC50 of CC(C)C1CCC2(C(=O)O)CCC3(C)C(=CCC4C5(C)CCC(O)C(C)(C)C5CCC43C)C12 (stereo not shown) : 4.21
